Field: IC50. Provide a value for each of the compounds that follow.
testedSystem: full-length SARM1 (FL-SARM1) (Homo sapiens, UniProt Q6SZW1)
Sequence (Q6SZW1 28-724): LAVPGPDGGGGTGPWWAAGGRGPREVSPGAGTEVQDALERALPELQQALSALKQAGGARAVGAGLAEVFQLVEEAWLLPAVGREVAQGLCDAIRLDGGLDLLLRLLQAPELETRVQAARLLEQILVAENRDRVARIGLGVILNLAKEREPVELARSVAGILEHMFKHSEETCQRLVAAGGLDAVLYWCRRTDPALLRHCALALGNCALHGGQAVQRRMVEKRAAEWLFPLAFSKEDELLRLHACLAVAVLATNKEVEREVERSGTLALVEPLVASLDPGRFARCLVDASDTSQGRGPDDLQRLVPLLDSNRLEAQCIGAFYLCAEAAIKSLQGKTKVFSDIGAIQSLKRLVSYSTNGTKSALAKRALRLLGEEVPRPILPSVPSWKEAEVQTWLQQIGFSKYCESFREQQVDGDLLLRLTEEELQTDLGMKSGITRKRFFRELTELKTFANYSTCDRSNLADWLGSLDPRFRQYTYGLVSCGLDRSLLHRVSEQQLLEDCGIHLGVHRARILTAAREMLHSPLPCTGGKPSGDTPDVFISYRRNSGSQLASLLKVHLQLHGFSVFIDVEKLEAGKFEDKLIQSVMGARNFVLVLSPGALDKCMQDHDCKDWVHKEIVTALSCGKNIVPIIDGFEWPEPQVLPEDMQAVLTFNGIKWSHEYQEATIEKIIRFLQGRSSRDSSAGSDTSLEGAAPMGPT
protocolDescription: FL-SARM1 cellular lysate assay (NAD/NADH-Glo detection of remaining NAD+, NMN-activated)
appliedConditions: Activity (μM) (IC50), 11 point curve
One number for each entry, in µM.

Cc1cnc(-c2cc(NC(=O)N3[C@@H]4C[C@@H](C)C[C@H]3C4)c(F)cc2Cl)nn1 [Example 320] | 0.6

For every listed record, write down its IC50.
1. COC(C)[C@@]12CC(C[C@@H](C)C1)N2C(=O)Nc1ccc(C)c(-c2ncc(F)cn2)c1 (single isomer, unassigned) [Example 191]
2. Cc1ccc(NC(=O)N2[C@@H]3C[C@@H](C)C[C@H]2C3)cc1-c1nccnc1C(F)(F)F [Example 229]
3. Cc1ccc(NC(=O)N2CCCC(C)CC2)cc1-c1ncc(F)cn1 (racemic) [Example 213]

result:
1: 0.0009; 2: 0.2; 3: 0.2
